system: tonic convulsions induced by maximal electroshock; assay: Maximal Electroshock Test, mouse; type: in vivo; conditions: 1 h; mouse, po, 60 min prior to test; prevention of tonic extension of hind limbs; read-out: ED50 Maximal Electroshock Mouse
Structures can show the parent of a compound that is named as a salt.
Each entry below carries its reported ED50.
readout.name: ED50 (mg/kg)

INSERT INTO assay_data (compound, target_of_assay, unit_descriptor, limit_operator, observed_value) VALUES
  ('NC[C@@H]1Oc2ccc(Cl)cc2[C@H](c2ccccc2)O1 (relative stereo) [BL-3069]', 'tonic convulsions induced by maximal electroshock', 'mg/kg', '=', 25),
  ('CN1C(=O)OC(C)(C)C1=O [Trimethadione, reference compound]', 'tonic convulsions induced by maximal electroshock', 'mg/kg', '>', 400),
  ('CC(C)NC[C@@H]1Oc2ccc(Cl)cc2[C@H](c2ccccc2)O1 (relative stereo) [BL-3396, hydrochloride]', 'tonic convulsions induced by maximal electroshock', 'mg/kg', '=', 10),
  ('CC(C)NC[C@H]1Oc2ccc(Cl)cc2[C@H](c2ccccc2F)O1.Cl (relative stereo) [BL-3681A]', 'tonic convulsions induced by maximal electroshock', 'mg/kg', '=', 12),
  ('O=C1NC(=O)C(c2ccccc2)(c2ccccc2)N1 [Diphenylhydantoin Na, reference compound]', 'tonic convulsions induced by maximal electroshock', 'mg/kg', '=', 10),
  ('CNC[C@H]1Oc2ccc(Cl)cc2[C@@H](c2ccccc2)O1.Cl (relative stereo) [BL-3168]', 'tonic convulsions induced by maximal electroshock', 'mg/kg', '=', 10);
